testDetails: In vitro human microsomal stability assay
Assay type: in vitro ADME
testContext: human, 0.5 h, 0.5 μM, pH 7.4
measureName: HUMAN MICROSOMAL STABILITY (% REMAINING AFTER 30 MINUTES) (%)

Example cases with answers are listed next.
OC(c1ccccn1)C1(c2cccc(OC(F)(F)F)c2)CC2(C1)OCCO2 (stereo not shown); 20
O[C@@H](c1ncccn1)C1(c2ccc(Cl)c(Cl)c2)CCC1; 68

P. O=C1CC(c2ccc(F)c(Cl)c2)([C@H](O)c2ccccn2)C1
Q. Nc1cccnc1C(O)C1(c2cccc(OC(F)(F)F)c2)CCC1 (stereo not shown)
Problem: Just curious, which one has the larger HUMAN MICROSOMAL STABILITY (% REMAINING AFTER 30 MINUTES) reading, P or Q ? Provide the label of your selected option as the answer.
Result: P

---

testedOn: human TRPV3 (Homo sapiens)
Construct: expressed in transfected cells
testDetails: In vitro antagonism of recombinant human TRPV3 activation (FLIPR Tetra calcium assay, 2-APB as agonist)
Type: cell-based
testContext: HEK293 cells stably expressing human TRPV3; 2-APB 80 μM; range class; read-out: IC50 (reported range)
Description: Test compounds were evaluated for ability to antagonize the activation of recombinant human TRPV3 using FLIPR® Tetra cellular screening. […] A double-addition protocol was used. […] Each test compound evaluated was first dissolved in DMSO to prepare a 10 mM stock solution. […] Changes in fluorescence were measured over time using the FLIPR® instrument. The intensity of the fluorescence was captured and digitally transferred to an interfaced computer. […]
measureName: IC50

Here is how some compounds turned out for IC50.
Nc1cccnc1C(O)C1(c2ccc(C(F)(F)F)cc2)CCC1 (centres unmarked); 5.1 to 20 µM
O[C@H](c1ccccn1)C1(c2ccc(C(F)(F)F)cc2)CC(F)(F)C1; 0.05 to 0.5 µM
OC(c1ccccn1)C1(c2cccc(OC(F)(F)F)c2)CCOCC1 (centres unmarked); 1.1 to 5 µM

Consider OC(c1ccccn1)C1(c2cccc(Oc3ccccc3)c2)CCC1 (centres unmarked) . Its measured IC50 is 0.501 to 1 µM

Summary for this compound, Cc1ccc(C2(C(O)c3ccccn3)CCC2)cc1 (centres unmarked) : IC50 is 1.1 to 5 µM

---

testDetails: In vitro human microsomal stability assay
Assay type: in vitro ADME
testContext: human, 0.5 h, 0.5 μM, pH 7.4
measureName: HUMAN MICROSOMAL STABILITY (% REMAINING AFTER 30 MINUTES) (%)

Please review the following examples before continuing.
OC(C1CCCc2cccnc21)C1(c2cccc(OC(F)(F)F)c2)CCC1 (stereo not shown) [Example 188]; 0.16
O[C@H](c1ccccn1)C1(c2ccc(C(F)(F)F)cc2)CCC1; 12
OC(c1ccccn1)C1(C2(O)CCOC2)CCC1 (stereo not shown); 71
OC(c1ccccn1)C1(c2nc3ccc(Cl)cc3s2)CCC1 (stereo not shown); 19
OC(c1ccccn1)C1(c2cc(C(F)(F)F)ccn2)CCC1 (stereo not shown); 37

1. O[C@H](c1ccccn1)C1(c2ccc(Cl)c(Cl)c2)CC1
2. OC(C1CCc2cccnc21)C1(c2cccc(OC(F)(F)F)c2)CCC1 (stereo not shown) [Example 189]
3. OC(C1CCc2cccnc21)C1(c2ccccc2OC(F)(F)F)CCC1 (stereo not shown) [Example 193]
4. OC(c1ccccn1)C1(C2CCOCC2)CCC1 (stereo not shown)
Problem: Arrange by HUMAN MICROSOMAL STABILITY (% REMAINING AFTER 30 MINUTES), high to low. Your reply should list the labels following the order given in the request.
Result: 4, 1, 2, 3
(4: 57%, 1: 4.0%, 2: 0.65%, 3: 0.02%)

A. O[C@@H](c1ccccn1)C1(c2ccc(OC(F)(F)F)cc2)CC(F)(F)C1
B. C[C@]1(O)C[C@@](c2ccc(OC(F)(F)F)cc2)([C@@H](O)c2ccccn2)C1
C. OC(C1CCCc2cccnc21)C1(c2ccc(C(F)(F)F)cc2)CCC1 (single isomer, unassigned) [Example 184]
Problem: Order each entry by recorded HUMAN MICROSOMAL STABILITY (% REMAINING AFTER 30 MINUTES), climbing from the minimum. Put the labels in the requested order and list them out.
Result: C, A, B

I. OC(C1CCc2cccnc21)C1(c2ccc(C(F)(F)F)cc2)CCC1 (stereo not shown) [Example 173]
II. OC(c1ccccn1)C1(c2ccc(C(F)(F)F)cc2)CCCO1 (stereo not shown) [Example 89]
III. OC(c1ccccn1)C1(c2ccc(OC(F)(F)F)cc2)CCC1 (stereo not shown)
IV. OC(c1ccccn1)C1(c2cccc(OC(F)(F)F)c2)CCC1 (stereo not shown)
V. OC(c1ccccn1)C1(c2cccc(Oc3ccccc3)c2)CCC1 (stereo not shown)
Problem: Order the records by HUMAN MICROSOMAL STABILITY (% REMAINING AFTER 30 MINUTES), with each subsequent value no larger than the one before. Answer format: the labels, in the requested order.
Result: II, I, III, IV, V
(II: 70%, I: 45%, III: 24%, IV: 0.72%, V: 0.12%)

I. OC1CC(c2ccc(Cl)c(Cl)c2)(C(O)c2ccccn2)C1 (stereo not shown) [Example 247]
II. OC(C1CCCc2cccnc21)C1(c2ccc(OC(F)(F)F)cc2)CCC1 (stereo not shown) [Example 177]
III. O[C@H](c1ccccn1)C1(c2cccc(C(F)(F)F)n2)CCC1
IV. OC(c1ccccn1)C1(C2CCCc3ccccc32)CCC1 (stereo not shown)
Problem: Descending sort on HUMAN MICROSOMAL STABILITY (% REMAINING AFTER 30 MINUTES) required. List the labels, following the order given in the request.
Result: I, III, IV, II

---

testedOn: human TRPV3 (Homo sapiens)
Construct: expressed in transfected cells
testDetails: In vitro antagonism of recombinant human TRPV3 activation (FLIPR Tetra calcium assay, 2-APB as agonist)
Format: cell-based
testContext: HEK293 cells stably expressing human TRPV3; 2-APB 80 μM; range class; read-out: IC50 (reported range)
Experimental: Test compounds were evaluated for ability to antagonize the activation of recombinant human TRPV3 using FLIPR® Tetra cellular screening. […] A double-addition protocol was used. […] Each test compound evaluated was first dissolved in DMSO to prepare a 10 mM stock solution. […] Changes in fluorescence were measured over time using the FLIPR® instrument. The intensity of the fluorescence was captured and digitally transferred to an interfaced computer. […]
This listing pairs compounds with measured IC50.

Take a look at these entries with their results.
O[C@H](c1ccccn1)C1(c2ccc(OC(F)(F)F)cc2)CC(F)(F)C1 [Example 128]; 50 to 500 nM
NC1CCCCC1C(O)C1(c2ccc(OC(F)(F)F)cc2)CCC1 (stereo not shown) [Example 209]; 1100 to 5000 nM

Would you kindly look at the next entry?
IC50 in this record for Nc1cccnc1C(O)C1(c2ccc(Cl)c(Cl)c2)CCC1 (stereo not shown) [Example 130] : 1100 to 5000 nM

---

testDetails: In vitro human microsomal stability assay
Assay type: in vitro ADME
testContext: human, 0.5 h, 0.5 μM, pH 7.4
measureName: HUMAN MICROSOMAL STABILITY (% REMAINING AFTER 30 MINUTES) (%)

CC(C)(C)OC(=O)N1CCC(c2ccc(OC(F)(F)F)cc2)(C(O)c2ccccn2)CC1 (centres unmarked); 28

P. OC(c1ccccn1)C1(c2cccc(OC(F)(F)F)c2)CCOCC1 (centres unmarked)
Q. OC1CC(c2cccc(OC(F)(F)F)c2)(C(O)c2ccccn2)C1 (centres unmarked) [Example 272]
Problem: Recorded HUMAN MICROSOMAL STABILITY (% REMAINING AFTER 30 MINUTES) values differ for P and Q ; which one is higher? Bench note: the answer is the label of the chosen record.
Result: Q
(Q: 54%, P: 31%)

---

testedOn: human TRPV3 (Homo sapiens, UniProt Q8NET8)
Construct: expressed in transfected cells
Sequence (Q8NET8 whole entry): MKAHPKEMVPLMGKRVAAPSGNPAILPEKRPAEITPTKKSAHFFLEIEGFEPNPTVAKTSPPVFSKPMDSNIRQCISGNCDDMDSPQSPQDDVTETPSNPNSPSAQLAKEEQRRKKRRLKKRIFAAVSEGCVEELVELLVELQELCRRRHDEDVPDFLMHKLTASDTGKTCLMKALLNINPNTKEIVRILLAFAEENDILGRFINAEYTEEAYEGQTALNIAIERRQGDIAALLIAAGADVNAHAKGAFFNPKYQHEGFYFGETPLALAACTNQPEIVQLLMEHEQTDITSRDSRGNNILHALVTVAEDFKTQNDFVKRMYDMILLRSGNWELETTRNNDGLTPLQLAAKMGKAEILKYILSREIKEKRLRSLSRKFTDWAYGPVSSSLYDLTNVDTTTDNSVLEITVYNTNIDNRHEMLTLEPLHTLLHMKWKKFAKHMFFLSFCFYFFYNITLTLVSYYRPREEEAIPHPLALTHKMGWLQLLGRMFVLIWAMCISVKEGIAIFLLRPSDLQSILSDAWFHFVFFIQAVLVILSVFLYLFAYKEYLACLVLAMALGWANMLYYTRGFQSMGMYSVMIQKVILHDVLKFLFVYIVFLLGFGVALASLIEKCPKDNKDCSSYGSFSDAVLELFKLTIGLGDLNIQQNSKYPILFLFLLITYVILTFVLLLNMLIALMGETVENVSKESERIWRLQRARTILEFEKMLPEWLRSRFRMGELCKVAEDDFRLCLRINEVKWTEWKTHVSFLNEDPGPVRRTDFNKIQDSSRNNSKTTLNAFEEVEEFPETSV
testDetails: In vitro antagonism of recombinant human TRPV3 activation (FLIPR Tetra calcium assay, 2-APB as agonist)
Assay type: cell-based
testContext: HEK293 cells stably expressing human TRPV3; 2-APB 80 μM; mostly average of n≧2; read-out: IC50 (actual measured value, shown parenthetically)
measureName: IC50 (µM)

a. OC(c1ccccn1)C1(C2=COCCC2)CCC1 (single isomer, unassigned) [Example 270]
b. OC(c1ccccn1)C1(C2=CCCOC2)CCC1 (single isomer, unassigned) [Example 269]
Problem: Quick one: lower IC50, a or b ? Pick one; state its label.
Result: a
(a: 3.94 µM, b: 11.2 µM)

---

testDetails: In vitro rat microsomal stability assay
Type: in vitro ADME, rat (Sprague-Dawley)
testContext: Sprague-Dawley, rat, 0.5 h, 0.5 μM, pH 7.4
measureName: RAT MICROSOMAL STABILITY (% REMAINING AFTER 30 MINUTES) (%)

P. OC(c1ccccn1)C1(C(c2ccccc2)C(F)(F)F)CCC1 (stereo not shown)
Q. OC(c1ccccn1)C1(c2cccc(OC(F)(F)F)c2)CCC1 (stereo not shown)
Problem: Higher RAT MICROSOMAL STABILITY (% REMAINING AFTER 30 MINUTES): P or Q ? Selection: enter the item's label.
Result: P

A. O[C@H](c1ccccn1)C1(c2ccc(Cl)c(Cl)c2)CCC1
B. OC(c1ccccn1)C1(C2CCC(F)(F)CC2)CCC1 (stereo not shown)
Problem: Given A and B , report the one with the higher recorded RAT MICROSOMAL STABILITY (% REMAINING AFTER 30 MINUTES). // return label of chosen record
Result: B
